system: mice bearing PSMA-expressing LNCAP cancer xenografts; assay: Biodistribution of 68Ga-labeled compounds; type: in vivo; details: 3 h post-injection
Hi there, I'd appreciate the recorded Muscle uptake for every entry that follows.

// known answers, use as guide
Request the reported Muscle uptake associated with O=C([O-])CN1CCN(CC(=O)[O-])CCN(CC(=O)NCCCC[C@H](NC(=O)CNC(=O)CCCc2ccc([N+](=O)[O-])cc2)C(=O)NC[C@H]2CC[C@H](C(=O)N[C@@H](Cc3ccc4ccccc4c3)C(=O)NCCCC[C@H](NC(=O)N[C@@H](CCC(=O)O)C(=O)O)C(=O)O)CC2)CCN(CC(=O)[O-])CC1.[68Ga+3] [^68Ga-HTK03089] 0.29 ± 0.04 % ID/g

Then this compound: Cc1ccc(CCCC(=O)NCC(=O)N[C@@H](CCCCNC(=O)CN2CCN(CC(=O)[O-])CCN(CC(=O)[O-])CCN(CC(=O)[O-])CC2)C(=O)NC[C@H]2CC[C@H](C(=O)N[C@@H](Cc3ccc4ccccc4c3)C(=O)NCCCC[C@H](NC(=O)N[C@@H](CCC(=O)O)C(=O)O)C(=O)O)CC2)cc1.[68Ga+3] [^68Ga-HTK03090] 1.04 ± 0.12 % ID/g

Next compound: O=C([O-])CN1CCN(CC(=O)[O-])CCN(CC(=O)NCCCC[C@H](NC(=O)CNC(=O)CCCc2ccc(Cl)cc2)C(=O)NC[C@H]2CC[C@H](C(=O)N[C@@H](Cc3ccc4ccccc4c3)C(=O)NCCCC[C@H](NC(=O)N[C@@H](CCC(=O)O)C(=O)O)C(=O)O)CC2)CCN(CC(=O)[O-])CC1.[68Ga+3] [^68Ga-HTK03055] 1.26 ± 0.18 % ID/g

Now try O=C([O-])CN1CCN(CC(=O)[O-])CCN(CC(=O)NCCCC[C@H](NC(=O)CNC(=O)CCCc2ccc(F)cc2)C(=O)NC[C@H]2CC[C@H](C(=O)N[C@@H](Cc3ccc4ccccc4c3)C(=O)NCCCC[C@H](NC(=O)N[C@@H](CCC(=O)O)C(=O)O)C(=O)O)CC2)CCN(CC(=O)[O-])CC1.[68Ga+3] [^68Ga-HTK03085] . 0.31 ± 0.08 % ID/g

Also need O=C([O-])CN1CCN(CC(=O)[O-])CCN(CC(=O)NCCCC[C@H](NC(=O)CNC(=O)CCCc2ccc(I)cc2)C(=O)NC[C@H]2CC[C@H](C(=O)N[C@@H](Cc3ccc4ccccc4c3)C(=O)NCCCC[C@H](NC(=O)N[C@@H](CCC(=O)O)C(=O)O)C(=O)O)CC2)CCN(CC(=O)[O-])CC1.[68Ga+3] [^68Ga-HTK03024] , thanks. 1.55 ± 0.15 % ID/g

// query: Nc1ccc(CCCC(=O)NCC(=O)N[C@@H](CCCCNC(=O)CN2CCN(CC(=O)[O-])CCN(CC(=O)[O-])CCN(CC(=O)[O-])CC2)C(=O)NC[C@H]2CC[C@H](C(=O)N[C@@H](Cc3ccc4ccccc4c3)C(=O)NCCCC[C@H](NC(=O)N[C@@H](CCC(=O)O)C(=O)O)C(=O)O)CC2)cc1.[68Ga+3] [^68Ga-HTK03087] 0.08 ± 0.02 % ID/g

Proceed to O=C([O-])CN1CCN(CC(=O)[O-])CCN(CC(=O)NCCCC[C@H](NC(=O)CNC(=O)CCCc2ccc(Br)cc2)C(=O)NC[C@H]2CC[C@H](C(=O)N[C@@H](Cc3ccc4ccccc4c3)C(=O)NCCCC[C@H](NC(=O)N[C@@H](CCC(=O)O)C(=O)O)C(=O)O)CC2)CCN(CC(=O)[O-])CC1.[68Ga+3] [^68Ga-HTK03058] 1.33 ± 0.24 % ID/g

Moving on to the next compound: O=C([O-])CN1CCN(CC(=O)[O-])CCN(CC(=O)NCC2CCC(C(=O)NC(Cc3c4ccccc4cc4ccccc34)C(=O)NCCCCC(NC(=O)NC(CCC(=O)O)C(=O)O)C(=O)O)CC2)CCN(CC(=O)[O-])CC1.[68Ga+3] (centres unmarked) [^68Ga-HTK03041] 0.40 ± 0.06 % ID/g

Batch request: Muscle uptake per item, same order as input.
1. COc1ccc(CCCC(=O)NCC(=O)N[C@@H](CCCCNC(=O)CN2CCN(CC(=O)[O-])CCN(CC(=O)[O-])CCN(CC(=O)[O-])CC2)C(=O)NC[C@H]2CC[C@H](C(=O)N[C@@H](Cc3ccc4ccccc4c3)C(=O)NCCCC[C@H](NC(=O)N[C@@H](CCC(=O)O)C(=O)O)C(=O)O)CC2)cc1.[68Ga+3] [^68Ga-HTK03086]
2. O=C([O-])CN1CCN(CC(=O)[O-])CCN(CC(=O)NCCCC[C@H](NC(=O)CNC(=O)CCc2ccccc2)C(=O)NC[C@H]2CC[C@H](C(=O)N[C@@H](Cc3ccc4ccccc4c3)C(=O)NCCCC[C@H](NC(=O)N[C@@H](CCC(=O)O)C(=O)O)C(=O)O)CC2)CCN(CC(=O)[O-])CC1.[68Ga+3] [^68Ga-HTK03082]
3. O=C([O-])CN1CCN(CC(=O)[O-])CCN(CC(=O)NCCCC[C@H](NC(=O)CNC(=O)CCCc2ccccc2)C(=O)NC[C@H]2CC[C@H](C(=O)N[C@@H](Cc3ccc4ccccc4c3)C(=O)NCCCC[C@H](NC(=O)N[C@@H](CCC(=O)O)C(=O)O)C(=O)O)CC2)CCN(CC(=O)[O-])CC1.[68Ga+3] [^68Ga-HTK03056]

0.57 ± 0.09 % ID/g
0.11 ± 0.11 % ID/g
0.46 ± 0.30 % ID/g

* * *

tested on: mice bearing PSMA-expressing LNCAP cancer xenografts; experiment: Biodistribution of 68Ga-labeled compounds; format: in vivo; details: 1 h post-injection
I'd appreciate it if you could supply Lungs uptake values for the items below.
Give bare numbers, in % ID/g.

Record excerpt, results attached:
Query the reported Lungs uptake for mice bearing PSMA-expressing LNCAP cancer xenografts; item: O=C([O-])CN1CCN(CC(=O)[O-])CCN(CC(=O)NCCCC[C@H](NC(=O)CNC(=O)CCCc2ccc(F)cc2)C(=O)NC[C@H]2CC[C@H](C(=O)N[C@@H](Cc3ccc4ccccc4c3)C(=O)NCCCC[C@H](NC(=O)N[C@@H](CCC(=O)O)C(=O)O)C(=O)O)CC2)CCN(CC(=O)[O-])CC1.[68Ga+3] [^68Ga-HTK03085] 3.67

And the next one, O=C([O-])CN1CCN(CC(=O)[O-])CCN(CC(=O)NCCCC[C@H](NC(=O)CNC(=O)CCCc2ccc(I)cc2)C(=O)NC[C@H]2CC[C@H](C(=O)N[C@@H](Cc3ccc4ccccc4c3)C(=O)NCCCC[C@H](NC(=O)N[C@@H](CCC(=O)O)C(=O)O)C(=O)O)CC2)CCN(CC(=O)[O-])CC1.[68Ga+3] [^68Ga-HTK03024] ? 9.51

Now for the molecule whose Lungs uptake we want.
Query Lungs uptake on mice bearing PSMA-expressing LNCAP cancer xenografts for COc1ccc(CCCC(=O)NCC(=O)N[C@@H](CCCCNC(=O)CN2CCN(CC(=O)[O-])CCN(CC(=O)[O-])CCN(CC(=O)[O-])CC2)C(=O)NC[C@H]2CC[C@H](C(=O)N[C@@H](Cc3ccc4ccccc4c3)C(=O)NCCCC[C@H](NC(=O)N[C@@H](CCC(=O)O)C(=O)O)C(=O)O)CC2)cc1.[68Ga+3] [^68Ga-HTK03086] 5.43

* * *

system: mice bearing PSMA-expressing LNCAP cancer xenografts; test: Biodistribution of 68Ga-labeled compounds; type: in vivo; conditions: 3 h post-injection
measurementLabel: Tumor:kidney ratio
One number for each entry.

State the recorded Tumor:kidney ratio for this entry: O=C([O-])CN1CCN(CC(=O)[O-])CCN(CC(=O)NCCCC[C@H](NC(=O)CNC(=O)CCCc2ccc(I)cc2)C(=O)NC[C@H]2CC[C@H](C(=O)N[C@@H](Cc3ccc4ccccc4c3)C(=O)NCCCC[C@H](NC(=O)N[C@@H](CCC(=O)O)C(=O)O)C(=O)O)CC2)CCN(CC(=O)[O-])CC1.[68Ga+3] [^68Ga-HTK03024] 1.21

* * *

system: mice bearing PSMA-expressing LNCAP cancer xenografts; assay: Biodistribution of 68Ga-labeled compounds; format: in vivo; details: 3 h post-injection
measurementLabel: Tumor:kidney ratio
Numbers only.

# get_value(readout='Tumor:kidney ratio', item= O=C([O-])CN1CCN(CC(=O)[O-])CCN(CC(=O)NCCCC[C@H](NC(=O)CNC(=O)CCc2ccccc2)C(=O)NC[C@H]2CC[C@H](C(=O)N[C@@H](Cc3ccc4ccccc4c3)C(=O)NCCCC[C@H](NC(=O)N[C@@H](CCC(=O)O)C(=O)O)C(=O)O)CC2)CCN(CC(=O)[O-])CC1.[68Ga+3] [^68Ga-HTK03082] ) 1.12

Ok, now O=C([O-])CN1CCN(CC(=O)[O-])CCN(CC(=O)NCCCC[C@H](NC(=O)CNC(=O)CCCc2ccc(Br)cc2)C(=O)NC[C@H]2CC[C@H](C(=O)N[C@@H](Cc3ccc4ccccc4c3)C(=O)NCCCC[C@H](NC(=O)N[C@@H](CCC(=O)O)C(=O)O)C(=O)O)CC2)CCN(CC(=O)[O-])CC1.[68Ga+3] [^68Ga-HTK03058] 0.83

Again, but for O=C([O-])CN1CCN(CC(=O)[O-])CCN(CC(=O)NCCCC[C@H](NC(=O)CNC(=O)CCCc2ccccc2)C(=O)NC[C@H]2CC[C@H](C(=O)N[C@@H](Cc3ccc4ccccc4c3)C(=O)NCCCC[C@H](NC(=O)N[C@@H](CCC(=O)O)C(=O)O)C(=O)O)CC2)CCN(CC(=O)[O-])CC1.[68Ga+3] [^68Ga-HTK03056] 1.22

Consider next the molecule COc1ccc(CCCC(=O)NCC(=O)N[C@@H](CCCCNC(=O)CN2CCN(CC(=O)[O-])CCN(CC(=O)[O-])CCN(CC(=O)[O-])CC2)C(=O)NC[C@H]2CC[C@H](C(=O)N[C@@H](Cc3ccc4ccccc4c3)C(=O)NCCCC[C@H](NC(=O)N[C@@H](CCC(=O)O)C(=O)O)C(=O)O)CC2)cc1.[68Ga+3] [^68Ga-HTK03086] in the same way. 0.59

For the 4 molecules below, give their Tumor:kidney ratio values.
1. O=C([O-])CN1CCN(CC(=O)[O-])CCN(CC(=O)NCCCC[C@H](NC(=O)CNC(=O)CCCc2ccc(F)cc2)C(=O)NC[C@H]2CC[C@H](C(=O)N[C@@H](Cc3ccc4ccccc4c3)C(=O)NCCCC[C@H](NC(=O)N[C@@H](CCC(=O)O)C(=O)O)C(=O)O)CC2)CCN(CC(=O)[O-])CC1.[68Ga+3] [^68Ga-HTK03085]
2. O=C([O-])CN1CCN(CC(=O)[O-])CCN(CC(=O)NCC2CCC(C(=O)NC(Cc3c4ccccc4cc4ccccc34)C(=O)NCCCCC(NC(=O)NC(CCC(=O)O)C(=O)O)C(=O)O)CC2)CCN(CC(=O)[O-])CC1.[68Ga+3] (centres unmarked) [^68Ga-HTK03041]
3. Nc1ccc(CCCC(=O)NCC(=O)N[C@@H](CCCCNC(=O)CN2CCN(CC(=O)[O-])CCN(CC(=O)[O-])CCN(CC(=O)[O-])CC2)C(=O)NC[C@H]2CC[C@H](C(=O)N[C@@H](Cc3ccc4ccccc4c3)C(=O)NCCCC[C@H](NC(=O)N[C@@H](CCC(=O)O)C(=O)O)C(=O)O)CC2)cc1.[68Ga+3] [^68Ga-HTK03087]
4. O=C([O-])CN1CCN(CC(=O)[O-])CCN(CC(=O)NCCCC[C@H](NC(=O)CNC(=O)CCCc2ccc(Cl)cc2)C(=O)NC[C@H]2CC[C@H](C(=O)N[C@@H](Cc3ccc4ccccc4c3)C(=O)NCCCC[C@H](NC(=O)N[C@@H](CCC(=O)O)C(=O)O)C(=O)O)CC2)CCN(CC(=O)[O-])CC1.[68Ga+3] [^68Ga-HTK03055]

[0.48, 0.26, 0.40, 0.88]
